Assignment: determine reported phage ELISA signal ratio for the given binders.
# SYSTEM: HSPA9 438-651 HSP70 (domain begin residue: 438, domain end residue: 651), P38646
# Sequence (P38646 whole entry): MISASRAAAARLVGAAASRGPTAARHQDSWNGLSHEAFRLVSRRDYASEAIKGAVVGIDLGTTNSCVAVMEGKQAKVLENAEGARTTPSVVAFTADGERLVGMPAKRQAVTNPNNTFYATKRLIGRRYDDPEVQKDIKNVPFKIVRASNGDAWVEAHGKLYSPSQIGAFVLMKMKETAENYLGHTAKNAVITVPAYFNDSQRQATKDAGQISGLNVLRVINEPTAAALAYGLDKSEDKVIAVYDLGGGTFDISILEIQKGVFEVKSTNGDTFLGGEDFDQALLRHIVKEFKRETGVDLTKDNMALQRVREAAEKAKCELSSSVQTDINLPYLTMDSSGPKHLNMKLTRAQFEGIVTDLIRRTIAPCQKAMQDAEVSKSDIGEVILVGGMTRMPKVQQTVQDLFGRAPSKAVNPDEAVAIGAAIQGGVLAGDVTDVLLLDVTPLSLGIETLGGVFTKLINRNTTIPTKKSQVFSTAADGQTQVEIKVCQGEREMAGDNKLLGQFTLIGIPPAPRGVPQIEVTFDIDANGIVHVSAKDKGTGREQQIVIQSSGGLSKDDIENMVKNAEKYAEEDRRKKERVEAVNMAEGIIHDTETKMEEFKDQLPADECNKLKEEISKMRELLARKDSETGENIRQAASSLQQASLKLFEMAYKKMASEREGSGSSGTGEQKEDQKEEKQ
# PROTOCOL: phage ELISA signal ratio (GST-PRM binding over GST background); higher = stronger binding of peptide-phage to the PRM
The reply should be a number, written without any unit.

Given the entry FYIYDTWVEWPPVVTV , report its measured phage ELISA signal ratio. 6.36

Given the entry VMTLTELQDWLNAAYV , report its measured phage ELISA signal ratio. 15

Given the entry DLQQWIIDFYIHSMET , report its measured phage ELISA signal ratio. 20.6

Given the entry VITMDQSQWDDVMFWL , report its measured phage ELISA signal ratio. 27.3

Given the entry TVSVTNIDMDMLSFLL , report its measured phage ELISA signal ratio. 15

Given the entry TFSMHRDEFQMLLNMM , report its measured phage ELISA signal ratio. 23.3
